# tested target: T1, CXCR3 receptor (UniProt P49682 1-368, limits assumed)
# T1 sequence (looked up): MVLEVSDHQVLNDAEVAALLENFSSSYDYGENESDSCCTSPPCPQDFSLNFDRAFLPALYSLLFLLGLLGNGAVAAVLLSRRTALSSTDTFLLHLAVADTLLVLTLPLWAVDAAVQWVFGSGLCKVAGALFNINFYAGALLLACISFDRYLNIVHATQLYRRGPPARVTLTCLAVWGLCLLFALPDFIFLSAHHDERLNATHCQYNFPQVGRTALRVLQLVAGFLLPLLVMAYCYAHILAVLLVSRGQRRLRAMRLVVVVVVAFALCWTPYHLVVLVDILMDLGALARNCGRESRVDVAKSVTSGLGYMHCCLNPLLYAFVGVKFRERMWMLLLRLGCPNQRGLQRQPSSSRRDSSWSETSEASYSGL
# procedure text: cell-based or functional assay
Non-standard residues stand in square brackets, D forms with d. No end group written: not given here. Aun = NCCCCCCCCCCC(=O)O
Listing: calcium mobilization activity of CXCR-3/300-19 cells, dosage 33.3 µM of selected binders
Answer with a number only.

>>> print(df.to_string())
                                     binder  value_reported
0  VPLSRTVRSTSISIS[Aun]ESKAIENLLKAVSK [[Ser^9,Ser^11,Glu^63]-IP-10-(1-15)-[linker]-IP-10-(58-71)]            18.9
1  VPLSRTPRCTCISIS[Aun]ESKAIKNLLKAVSK (cysteine pairing not given here) [[Pro^7]-IP-10-(1-15)-[linker]-IP-10-(58-71)]            18.6
2  Ac-VPLSRTVRATFISISN[Aun]LKAVSKEMSKRSP [Acetylated-[Ala^9,Phe^11]-IP-10-(1-16)-[linker]-IP-10-(66-78)]              20
3  VPLSRTVRSTSISIS[Aun]ESKAIKNLLEAVSK [[Ser^9,Ser^11,Glu^67]-IP-10-(1-15)-[linker]-IP-10-(58-71)]            13.3

Pending binder:
Item under review: Ac-VPLSRTVRCTCISISN[Aun]LKAVSKEMSKRSP (cysteine pairing not given here) [Acetylated-IP-10-(1-16)-[linker]-IP-10-(66-78)] . Reported calcium mobilization activity of CXCR-3/300-19 cells, dosage 33.3 µM? 20
